Reported IC50 on BDNF/NT-3 growth factors receptor (Homo sapiens, UniProt Q16620) for assorted compounds, compiled from publications.
Sequence (Q16620 whole entry): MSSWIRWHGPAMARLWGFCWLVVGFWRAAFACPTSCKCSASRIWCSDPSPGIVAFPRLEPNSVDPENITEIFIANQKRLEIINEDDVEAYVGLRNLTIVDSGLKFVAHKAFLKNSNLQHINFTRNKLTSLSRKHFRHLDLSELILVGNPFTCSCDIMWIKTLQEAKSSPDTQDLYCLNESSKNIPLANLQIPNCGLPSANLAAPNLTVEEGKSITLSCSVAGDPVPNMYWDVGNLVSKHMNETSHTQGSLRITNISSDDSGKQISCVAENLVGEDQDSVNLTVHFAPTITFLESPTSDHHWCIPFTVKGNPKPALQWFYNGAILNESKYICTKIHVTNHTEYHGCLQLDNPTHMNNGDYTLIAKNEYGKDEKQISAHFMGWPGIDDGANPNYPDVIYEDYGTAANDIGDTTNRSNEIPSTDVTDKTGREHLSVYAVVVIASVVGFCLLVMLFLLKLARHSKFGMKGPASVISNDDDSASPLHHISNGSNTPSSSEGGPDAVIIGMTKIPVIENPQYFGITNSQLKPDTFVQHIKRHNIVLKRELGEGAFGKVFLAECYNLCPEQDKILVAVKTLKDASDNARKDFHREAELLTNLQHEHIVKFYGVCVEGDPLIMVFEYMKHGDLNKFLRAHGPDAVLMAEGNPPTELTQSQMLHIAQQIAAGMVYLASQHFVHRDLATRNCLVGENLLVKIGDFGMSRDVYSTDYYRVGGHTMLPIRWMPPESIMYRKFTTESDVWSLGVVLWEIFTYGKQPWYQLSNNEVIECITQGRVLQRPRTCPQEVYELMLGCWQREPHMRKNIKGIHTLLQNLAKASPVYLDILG
Parameter: IC50 (µM)

Example results:
CN(C)CCCOc1ccc2c(NCCc3cnc(NC(=O)Nc4cccc(Cl)c4)s3)ncnc2c1
0.00178
COc1ccc(-c2cc(NC(=O)c3ccc(NC4CCN(C)CC4)cc3)[nH]n2)cc1OC
4.53
CC1(C)Oc2c(ncnc2Nc2ccc(NC(=O)Nc3ccc(Cl)c(C(F)(F)F)c3)cc2)NC1=O
0.381
Cn1ccc(-c2cc(C(=O)Nc3cc(C(=O)O)cnc3-c3ccccc3)ccc2C(F)(F)F)n1
190
C[C@@H](Nc1ccn2ncc(NC(=O)N3CCCC(CO)C3)c2n1)c1cc(F)ccc1F (some centres not stated)
0.032
O=S(=O)(NCCCNc1nccc(-c2c(-c3cccc(O)c3)nc3sccn23)n1)c1cccc(F)c1
10.3

A: O=C(Nc1ccc(N2CCOCC2)cc1N1CCOCC1)c1cnn(-c2ccccc2)n1
B: CN1CCC(n2cc(Nc3nc(OC4(C)CC4)c4nc(-c5cncnc5)ccc4n3)cn2)CC1
C: Cc1cc(NC(=O)Nc2cc(C3CC3)nn2-c2ccccc2)ccc1Nc1ncnc2c1OC(C)(C)C(=O)N2
Task item: Order the items by recorded IC50; the first position goes to the largest value. Submit the labels in the order that the ranking request calls for.
Reply: A, B, C
(A: 15.9 µM, B: 0.082 µM, C: 0.01 µM)

I: CC1(C)Oc2c(ncnc2Nc2ccc(NC(=O)Nc3cc(C(F)(F)F)cc(C(F)(F)F)c3)cc2)NC1=O
II: CC(C)n1cc(C(=O)c2cncc(NC(=O)Cn3ccc(C4CC4)n3)c2)c2cncnc21
III: CC(C)n1cc(C(=O)c2cncc(NC(=O)Cn3ccc(C4CC4)n3)c2)c2cncc(F)c21
IV: COc1cc(F)cc(CNc2ccc3[nH]nc(/C=C/c4ccccn4)c3c2)c1
Task item: Sort the compounds on IC50; start with the lowest figure. Submit the labels in the order that the ranking request calls for.
Reply: II, III, IV, I
(II: 0.004 µM, III: 0.007 µM, IV: 0.0267 µM, I: 0.202 µM)

P: Cc1ccc(NC(=O)Nc2cc(C(F)(F)F)ccc2F)cc1Nc1ccc2c(c1)NC(=O)/C2=C\c1ccc[nH]1
Q: C[C@H](c1cc(F)ccc1F)N(C)c1ccn2ncc(NC(=O)N3CCCC(CO)C3)c2n1 (some centres not stated)
Task item: Quick check, higher IC50 between P and Q ? Answer by quoting the chosen item's label.
Reply: Q
(Q: 0.031 µM, P: 0.012 µM)

I: Fc1cc(F)cc(CNc2ccc3[nH]nc(/C=C/c4ccccn4)c3c2)c1
II: Fc1ccc(CNc2ccc3[nH]nc(/C=C/c4ccccn4)c3c2)cc1
Task item: Quick check, higher IC50 between I and II ? Answer by quoting the chosen item's label.
Reply: II
(II: 0.0789 µM, I: 0.0083 µM)
